run-description: chemical genetic growth profiling, strain panel (AID 1159580);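 further: tested at 20 µM; growth read once vehicle control cultures reached saturation at 30 °C; 1 = growth at the plate median or of vehicle wells; lower values mean less growth of the strain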
test-settings: S. cerevisiae deletion strains, growth OD, locus YDL134C, strain PPH21, hits give low values
About 2,000 (36%) of roughly 5,500 compounds were called active. About 18% were inconclusive and are not listed. The list shows a part of the results.
readout-label: normalized growth
# respond with the number and nothing more

Some molecules with recorded normalized growth:
[[record]]
molecule = "O[C@H]1[C@H](O)[C@@H](O)C2OC[C@H]1O2"
readout_label = "normalized growth"
reported_value = 0.99

[[record]]
molecule = "O=C(O)CC[N+](=O)[O-]"
readout_label = "normalized growth"
reported_value = 0.997

[[record]]
molecule = "CC(C)Cn1c(=O)n(C)c(=O)c2[nH]cnc21"
readout_label = "normalized growth"
reported_value = 0.991

[[record]]
molecule = "COC(=O)c1cc(OC)c(OC)cc1NC(=O)Nc1cc(Cl)cc(Cl)c1"
readout_label = "normalized growth"
reported_value = 0.979

[[record]]
molecule = "CC(C)=CCC/C(C)=C/CO"
readout_label = "normalized growth"
reported_value = 1.02


Q) Fill in the blank: the reported normalized growth of Cc1cc(S(=O)(=O)NCCNc2nccc(C(F)(F)F)n2)c(C)cc1Cl is ____.
A) 0.998

Q) What do you get for N#Cc1cc(I)c(C#N)c(I)c1 ?
A) 0.978
